Experiment: Ratio of Cmax/Cmin of Atazanavir in Sprague-Dawley rat at 3 ml/kg,po measured after 24 hrs by UPLC-MS/MS analysis
Type: ADME
Details: in vivo
ATTRIBUTE MEASURED: Ratio
Reply: number alone, nothing else.

Please review the following examples before continuing.
MOLECULE	Ratio
COC(=O)N[C@H](C(=O)N[C@@H](Cc1ccccc1)[C@H](CN(Cc1ccc(-c2ccccn2)cc1)NC(=O)[C@@H](NC(=O)OC)C(C)(C)C)OC(=O)OC(OC(=O)CCN)C(C)C)C(C)(C)C (stereo in doubt; 3z)	1309.3
CCC(C)C(OC(=O)O[C@@H](CN(Cc1ccc(-c2ccccn2)cc1)NC(=O)[C@@H](NC(=O)OC)C(C)(C)C)[C@H](Cc1ccccc1)NC(=O)[C@@H](NC(=O)OC)C(C)(C)C)OC(=O)[C@@H](N)C(C)C (stereo in doubt; 4k)	1631.7
COC(=O)N[C@H](C(=O)N[C@@H](Cc1ccccc1)[C@H](CN(Cc1ccc(-c2ccccn2)cc1)NC(=O)[C@@H](NC(=O)OC)C(C)(C)C)OC(=O)OC(OC(=O)[C@@H](N)C(C)C)C(C)(C)C)C(C)(C)C (mixture of isomers)	235.5

Here is another molecule to look at.
Fill in the blank: the reported Ratio of COC(=O)N[C@H](C(=O)N[C@@H](Cc1ccccc1)[C@H](CN(Cc1ccc(-c2ccccn2)cc1)NC(=O)[C@@H](NC(=O)OC)C(C)(C)C)OC(=O)OC(OC(=O)[C@@H](NC(=O)[C@H](N)C(C)C)C(C)C)C(C)C)C(C)(C)C (stereo in doubt; 6h) is ____.
6.4

###

# maps each entry to its Ratio
Experiment: Ratio of AUC of Atazanavir in Sprague-Dawley rat at 3 ml/kg,po measured upto 24 hrs by UPLC-MS/MS analysis
Format: ADME
Conditions: in vivo

Please review the following examples before continuing.
COMPOUND	ATTRIBUTE MEASURED	ENDPOINT RESULT
COC(=O)N[C@H](C(=O)N[C@@H](Cc1ccccc1)[C@H](CN(Cc1ccc(-c2ccccn2)cc1)NC(=O)[C@@H](NC(=O)OC)C(C)(C)C)OC(=O)OC(OC(=O)[C@H](C)N)C(C)C)C(C)(C)C (stereo in doubt; 3q)	Ratio	3.09
COC(=O)N[C@H](C(=O)N[C@@H](Cc1ccccc1)[C@H](CN(Cc1ccc(-c2ccccn2)cc1)NC(=O)[C@@H](NC(=O)OC)C(C)(C)C)OC(=O)OC(OC(=O)[C@@H](NC(=O)[C@@H](N)C(C)C)C(C)C)C(C)C)C(C)(C)C (stereo in doubt; 6f)	Ratio	0.15

Fill in the blank: the reported Ratio of COC(=O)N[C@H](C(=O)N[C@@H](Cc1ccccc1)[C@H](CN(Cc1ccc(-c2ccccn2)cc1)NC(=O)[C@@H](NC(=O)OC)C(C)(C)C)OC(=O)OC(OC(=O)[C@@H](N)C(C)C)C1CCCCC1)C(C)(C)C (stereo in doubt; 4o) is ____.
0.98

Fill in the blank: the reported Ratio of COC(=O)N[C@H](C(=O)N[C@@H](Cc1ccccc1)[C@H](CN(Cc1ccc(-c2ccccn2)cc1)NC(=O)[C@@H](NC(=O)OC)C(C)(C)C)OC(=O)OC(OC(=O)[C@@H](NC(=O)[C@@H](N)C(C)C)C(C)C)C(C)C)C(C)(C)C (stereo in doubt; 6e) is ____.
0.0004

Fill in the blank: the reported Ratio of COC(=O)N[C@H](C(=O)N[C@@H](Cc1ccccc1)[C@H](CN(Cc1ccc(-c2ccccn2)cc1)NC(=O)[C@@H](NC(=O)OC)C(C)(C)C)OC(=O)OC(OC(=O)[C@@H](N)C(C)C)C(C)(C)C)C(C)(C)C (stereo in doubt; 4m) is ____.
0.01

Fill in the blank: the reported Ratio of CCC(C)C(OC(=O)O[C@@H](CN(Cc1ccc(-c2ccccn2)cc1)NC(=O)[C@@H](NC(=O)OC)C(C)(C)C)[C@H](Cc1ccccc1)NC(=O)[C@@H](NC(=O)OC)C(C)(C)C)OC(=O)[C@@H](N)C(C)C (mixture of isomers) is ____.
0.68

Fill in the blank: the reported Ratio of COC(=O)N[C@H](C(=O)N[C@@H](Cc1ccccc1)[C@H](CN(Cc1ccc(-c2ccccn2)cc1)NC(=O)[C@@H](NC(=O)OC)C(C)(C)C)OC(=O)OC(OC(=O)[C@H](C(C)C)N(C)C)C(C)C)C(C)(C)C (stereo in doubt; 5h) is ____.
2.57

Fill in the blank: the reported Ratio of COC(=O)N[C@H](C(=O)N[C@@H](Cc1ccccc1)[C@H](CN(Cc1ccc(-c2ccccn2)cc1)NC(=O)[C@@H](NC(=O)OC)C(C)(C)C)OC(=O)OC(OC(=O)[C@@H](N)C(C)C)C(C)C)C(C)(C)C (stereo in doubt; 3s) is ____.
0.02

Fill in the blank: the reported Ratio of COC(=O)N[C@H](C(=O)N[C@@H](Cc1ccccc1)[C@H](CN(Cc1ccc(-c2ccccn2)cc1)NC(=O)[C@@H](NC(=O)OC)C(C)(C)C)OC(=O)OC(OC(=O)[C@@H](N)Cc1ccccc1)C(C)C)C(C)(C)C (stereo in doubt; 3v) is ____.
0

Fill in the blank: the reported Ratio of CCC(C)C(OC(=O)O[C@@H](CN(Cc1ccc(-c2ccccn2)cc1)NC(=O)[C@@H](NC(=O)OC)C(C)(C)C)[C@H](Cc1ccccc1)NC(=O)[C@@H](NC(=O)OC)C(C)(C)C)OC(=O)[C@@H](N)C(C)C (stereo in doubt; 4k) is ____.
1.34

Fill in the blank: the reported Ratio of COC(=O)N[C@H](C(=O)N[C@@H](Cc1ccccc1)[C@H](CN(Cc1ccc(-c2ccccn2)cc1)NC(=O)[C@@H](NC(=O)OC)C(C)(C)C)OC(=O)OC(OC(=O)[C@@H](N)Cc1ccccc1)C(C)C)C(C)(C)C (stereo in doubt; 3w) is ____.
0.01

Fill in the blank: the reported Ratio of COC(=O)N[C@H](C(=O)N[C@@H](Cc1ccccc1)[C@H](CN(Cc1ccc(-c2ccccn2)cc1)NC(=O)[C@@H](NC(=O)OC)C(C)(C)C)OC(=O)OC(OC(=O)C1(N)CC1)C(C)C)C(C)(C)C (stereo in doubt; 3x) is ____.
2.07

Fill in the blank: the reported Ratio of COC(=O)N[C@H](C(=O)N[C@@H](Cc1ccccc1)[C@H](CN(Cc1ccc(-c2ccccn2)cc1)NC(=O)[C@@H](NC(=O)OC)C(C)(C)C)OC(=O)OC(OC(=O)C[C@H](N)Cc1cc(F)c(F)cc1F)C(C)C)C(C)(C)C (stereo in doubt; 3ac) is ____.
3.4
